molecular target: SMARCA2 (Homo sapiens); test: HiBiT assay for protein degradation, Hela SMARCA2-HiBiT cells (A series); format: cell-based; parameters: Hela cells were genetically modified via CRISPR/Cas9 to fuse HiBiT to the carboxy terminus of SMARCA2; host or cells: HeLa (CRISPR/Cas9 HiBiT knock-in); conditions: Hela SMARCA2-HiBiT cells, 24 hours treatment; read-out: SMARC A2 Hela HiBit Dmax (%)

>  <molecular-string>
Cc1ncsc1-c1ccc(CNC(=O)[C@@H]2C[C@@H](O)CN2C(=O)[C@@H](n2cc([C@H]3CC[C@H](CN4CCC(c5ccc6c(c5)-n5c(nc(=O)c7c(Br)cccc75)C65CCCCC5)CC4)CC3)nn2)C(C)(C)C)cc1

>  <Dmax>
> 90%

$$$$
>  <molecular-string>
Cc1ncsc1-c1ccc([C@H](C)NC(=O)[C@@H]2C[C@@H](O)CN2C(=O)[C@@H](n2cc(CCCCCCN3CCC(c4ccc5c(c4)C4(CCCCC4)c4nc(=O)c6c(Br)cccc6n4-5)CC3)nn2)C(C)(C)C)cc1

>  <Dmax>
> 90%

$$$$

----------
target: SMARCA4 (Homo sapiens, UniProt P51532); assay: HiBiT assay for protein degradation, Hela SMARCA4-HiBiT cells (A series); type: cell-based; parameters: fuse HiBiT to the carboxy terminus of SMARCA2 (Promega CS302365) or SMARCA4 (Promega CS3023225); host or cells: HeLa (CRISPR/Cas9 HiBiT knock-in); settings: Hela SMARCA4-HiBiT cells, 24 hours treatment; read-out: SMARC A4 Hela HiBit Dmax(%)
Sequence (P51532 whole entry): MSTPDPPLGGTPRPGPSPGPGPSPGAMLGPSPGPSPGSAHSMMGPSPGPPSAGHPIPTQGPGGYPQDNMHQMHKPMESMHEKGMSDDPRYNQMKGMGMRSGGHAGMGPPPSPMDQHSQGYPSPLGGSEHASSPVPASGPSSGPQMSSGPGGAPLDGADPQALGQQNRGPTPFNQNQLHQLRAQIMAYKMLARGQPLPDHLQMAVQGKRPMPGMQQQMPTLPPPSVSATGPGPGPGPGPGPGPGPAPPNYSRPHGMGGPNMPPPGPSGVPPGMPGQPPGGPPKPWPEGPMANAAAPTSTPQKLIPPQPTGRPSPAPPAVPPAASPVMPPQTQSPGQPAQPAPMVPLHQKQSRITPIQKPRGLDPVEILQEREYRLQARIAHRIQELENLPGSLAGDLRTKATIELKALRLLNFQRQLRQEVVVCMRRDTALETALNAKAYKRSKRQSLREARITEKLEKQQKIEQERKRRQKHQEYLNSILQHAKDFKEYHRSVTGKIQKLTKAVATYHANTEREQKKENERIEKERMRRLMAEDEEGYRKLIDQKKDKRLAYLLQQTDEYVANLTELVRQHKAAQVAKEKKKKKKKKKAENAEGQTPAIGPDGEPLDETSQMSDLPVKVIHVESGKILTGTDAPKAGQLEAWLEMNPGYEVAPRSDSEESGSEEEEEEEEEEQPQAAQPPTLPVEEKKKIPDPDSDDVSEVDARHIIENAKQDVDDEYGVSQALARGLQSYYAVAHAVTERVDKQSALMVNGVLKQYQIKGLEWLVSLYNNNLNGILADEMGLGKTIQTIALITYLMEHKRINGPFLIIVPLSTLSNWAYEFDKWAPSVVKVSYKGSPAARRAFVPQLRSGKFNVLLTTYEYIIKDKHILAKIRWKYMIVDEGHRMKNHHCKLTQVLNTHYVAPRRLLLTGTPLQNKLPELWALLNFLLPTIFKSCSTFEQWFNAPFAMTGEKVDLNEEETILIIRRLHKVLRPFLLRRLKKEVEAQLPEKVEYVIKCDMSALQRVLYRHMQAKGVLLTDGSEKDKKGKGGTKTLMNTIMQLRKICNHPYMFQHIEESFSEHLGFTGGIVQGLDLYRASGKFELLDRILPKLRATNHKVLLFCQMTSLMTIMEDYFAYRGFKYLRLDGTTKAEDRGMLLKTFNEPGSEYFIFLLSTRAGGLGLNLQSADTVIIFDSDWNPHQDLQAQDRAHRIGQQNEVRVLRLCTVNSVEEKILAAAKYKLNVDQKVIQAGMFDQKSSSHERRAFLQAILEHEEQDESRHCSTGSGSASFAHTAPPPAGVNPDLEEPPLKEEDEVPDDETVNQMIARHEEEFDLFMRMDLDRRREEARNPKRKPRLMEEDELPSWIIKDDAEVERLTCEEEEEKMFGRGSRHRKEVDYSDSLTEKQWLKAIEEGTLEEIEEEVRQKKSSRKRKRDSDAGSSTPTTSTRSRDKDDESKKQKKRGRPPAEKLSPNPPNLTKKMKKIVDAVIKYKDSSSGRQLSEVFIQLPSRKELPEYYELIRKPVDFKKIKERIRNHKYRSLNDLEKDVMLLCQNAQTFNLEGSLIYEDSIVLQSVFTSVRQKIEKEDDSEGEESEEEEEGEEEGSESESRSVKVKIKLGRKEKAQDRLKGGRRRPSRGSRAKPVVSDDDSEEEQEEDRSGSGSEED
measure-name: Dmax

>  <molecular-string>
Cc1ncsc1-c1ccc(CNC(=O)[C@@H]2C[C@@H](O)CN2C(=O)[C@@H](n2cc([C@H]3CC[C@H](CN4CCC(c5ccc6c(c5)-n5c(nc(=O)c7c(Br)cccc75)C65CCCCC5)CC4)CC3)nn2)C(C)(C)C)cc1

>  <measure-name>
Dmax

>  <obs-value>
70 to 90%

$$$$
>  <molecular-string>
Cc1ncsc1-c1ccc([C@H](CCCCCN2CCC(c3ccc4c(c3)-n3c(nc(=O)c5c(Br)cccc53)C43CCCCC3)CC2)NC(=O)[C@H]2C[C@H](O)CN2C(=O)[C@@H](n2cc(C3CC3)nn2)C(C)(C)C)cc1

>  <measure-name>
Dmax

>  <obs-value>
> 90%

$$$$
>  <molecular-string>
Cc1ncsc1-c1ccc([C@H](C)NC(=O)[C@@H]2C[C@@H](O)CN2C(=O)[C@@H](NC(=O)[C@H]2CC[C@H](CN3CCC(N4CCC(c5ccc6c(c5)C5(CCCCC5)c5nc(=O)c7c(Cl)cccc7n5-6)CC4)CC3)CC2)C(C)(C)C)cc1

>  <measure-name>
Dmax

>  <obs-value>
< 50%

$$$$
>  <molecular-string>
Cc1ncsc1-c1ccc([C@H](CCCCN2CCC(c3ccc4c(c3)-n3c(nc(=O)c5c(Cl)cccc53)C43CCOCC3)CC2)NC(=O)[C@@H]2C[C@@H](O)CN2C(=O)[C@@H](NC(=O)C2(F)CC2)C(C)(C)C)cc1

>  <measure-name>
Dmax

>  <obs-value>
< 50%

$$$$

----------
biological target: SMARCA2 (Homo sapiens); assay: HiBiT assay for protein degradation, Hela SMARCA2-HiBiT cells (A series); type: cell-based; design: Hela cells were genetically modified via CRISPR/Cas9 to fuse HiBiT to the carboxy terminus of SMARCA2; host or cells: HeLa (CRISPR/Cas9 HiBiT knock-in); conditions: Hela SMARCA2-HiBiT cells, 24 hours treatment; read-out: SMARC A2 Hela HiBit DC50

>  <molecular-string>
Cc1ncsc1-c1ccc([C@H](CN2CCOCC2)NC(=O)[C@@H]2C[C@@H](O)CN2C(=O)[C@@H](n2cc([C@H]3CC[C@H](CN4CCC(c5ccc6c(c5)-n5c(nc(=O)c7c(Cl)cccc75)C6(C)C)CC4)CC3)nn2)C(C)(C)O)cc1

>  <assay-system>
SMARCA2 (Homo sapiens)

>  <DC50>
< 10 nM

$$$$
>  <molecular-string>
Cc1ncsc1-c1ccc([C@H](CN2CCOCC2)NC(=O)[C@@H]2C[C@@H](O)CN2C(=O)[C@@H](n2cc([C@H]3CC[C@H](CN4CCC(c5ccc6c(c5)-n5c(nc(=O)c7c(Cl)cccc75)C65CCCCC5)CC4)CC3)nn2)C(C)(C)O)cc1

>  <assay-system>
SMARCA2 (Homo sapiens)

>  <DC50>
< 10 nM

$$$$

----------
Listing of recorded Dmax by entry.
target: SMARCA4 (Homo sapiens, UniProt P51532); test: HiBit assay in engineered HT1080 CRISPR knock-in cell, 6 hrs (B series), SMARCA4; type: cell-based; details: HT-1080, HT1080 CRISPR knock-in cells, 6 hrs incubation; read-out: SMARC A4 HT1080 HiBit Dmax(%)
measure-name: Dmax

>  <molecule>
Cc1cc(C(C(=O)N2C[C@H](O)C[C@H]2C(=O)N[C@@H](CCN2CCC(c3cccc4c3C(C)(C)c3nc(=O)c5c(Cl)cccc5n3-4)CC2)c2ccc(-c3scnc3C)cc2)C(C)C)on1 (stereo partly shown)

>  <assay-system>
SMARCA4 (Homo sapiens, UniProt P51532)

>  <obs-value>
70 to 90%

$$$$
>  <molecule>
Cc1nc(C)c(-c2ccc([C@H](C)NC(=O)[C@@H]3C[C@@H](O)CN3C(=O)[C@@H](n3cc([C@H]4CC[C@H](CN5CCC(c6ccc7c(c6)-n6c(nc(=O)c8c(Cl)cccc86)C7(C)C)CC5)CC4)nn3)C(C)(C)C)cc2)s1

>  <assay-system>
SMARCA4 (Homo sapiens, UniProt P51532)

>  <obs-value>
70 to 90%

$$$$
>  <molecule>
Cc1ncsc1-c1ccc([C@H](C)NC(=O)[C@@H]2C[C@@H](O)CN2C(=O)[C@@H](c2cc(OC3CCC(CN4CCC(c5ccc6c(c5)-n5c(nc(=O)c7c(Cl)cccc75)C6(C)C)CC4)CC3)no2)C(C)C)cc1 (stereo partly shown)

>  <assay-system>
SMARCA4 (Homo sapiens, UniProt P51532)

>  <obs-value>
70 to 90%

$$$$
>  <molecule>
Cc1ncsc1-c1ccc([C@H](C)NC(=O)[C@@H]2C[C@@H](O)CN2C(=O)[C@@H](c2cc(OCCN3CCC(c4ccc5c(c4)-n4c(nc(=O)c6c(Cl)cccc64)C5(C)C)CC3)no2)C(C)C)cc1

>  <assay-system>
SMARCA4 (Homo sapiens, UniProt P51532)

>  <obs-value>
< 50%

$$$$

----------
// Dmax lookup, one value per entry
target: SMARCA2 (Homo sapiens, UniProt P51531); assay: HiBiT assay for protein degradation, Hela SMARCA2-HiBiT cells (A series); assay type: cell-based; parameters: Hela cells were genetically modified via CRISPR/Cas9 to fuse HiBiT to the carboxy terminus of SMARCA2; host or cells: HeLa (CRISPR/Cas9 HiBiT knock-in); conditions: Hela SMARCA2-HiBiT cells, 24 hours treatment; read-out: SMARC A2 Hela HiBit Dmax (%);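 on SMARC A2 Hela HiBit Dmax (%): 24 h compound treatment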
Sequence (P51531 whole entry): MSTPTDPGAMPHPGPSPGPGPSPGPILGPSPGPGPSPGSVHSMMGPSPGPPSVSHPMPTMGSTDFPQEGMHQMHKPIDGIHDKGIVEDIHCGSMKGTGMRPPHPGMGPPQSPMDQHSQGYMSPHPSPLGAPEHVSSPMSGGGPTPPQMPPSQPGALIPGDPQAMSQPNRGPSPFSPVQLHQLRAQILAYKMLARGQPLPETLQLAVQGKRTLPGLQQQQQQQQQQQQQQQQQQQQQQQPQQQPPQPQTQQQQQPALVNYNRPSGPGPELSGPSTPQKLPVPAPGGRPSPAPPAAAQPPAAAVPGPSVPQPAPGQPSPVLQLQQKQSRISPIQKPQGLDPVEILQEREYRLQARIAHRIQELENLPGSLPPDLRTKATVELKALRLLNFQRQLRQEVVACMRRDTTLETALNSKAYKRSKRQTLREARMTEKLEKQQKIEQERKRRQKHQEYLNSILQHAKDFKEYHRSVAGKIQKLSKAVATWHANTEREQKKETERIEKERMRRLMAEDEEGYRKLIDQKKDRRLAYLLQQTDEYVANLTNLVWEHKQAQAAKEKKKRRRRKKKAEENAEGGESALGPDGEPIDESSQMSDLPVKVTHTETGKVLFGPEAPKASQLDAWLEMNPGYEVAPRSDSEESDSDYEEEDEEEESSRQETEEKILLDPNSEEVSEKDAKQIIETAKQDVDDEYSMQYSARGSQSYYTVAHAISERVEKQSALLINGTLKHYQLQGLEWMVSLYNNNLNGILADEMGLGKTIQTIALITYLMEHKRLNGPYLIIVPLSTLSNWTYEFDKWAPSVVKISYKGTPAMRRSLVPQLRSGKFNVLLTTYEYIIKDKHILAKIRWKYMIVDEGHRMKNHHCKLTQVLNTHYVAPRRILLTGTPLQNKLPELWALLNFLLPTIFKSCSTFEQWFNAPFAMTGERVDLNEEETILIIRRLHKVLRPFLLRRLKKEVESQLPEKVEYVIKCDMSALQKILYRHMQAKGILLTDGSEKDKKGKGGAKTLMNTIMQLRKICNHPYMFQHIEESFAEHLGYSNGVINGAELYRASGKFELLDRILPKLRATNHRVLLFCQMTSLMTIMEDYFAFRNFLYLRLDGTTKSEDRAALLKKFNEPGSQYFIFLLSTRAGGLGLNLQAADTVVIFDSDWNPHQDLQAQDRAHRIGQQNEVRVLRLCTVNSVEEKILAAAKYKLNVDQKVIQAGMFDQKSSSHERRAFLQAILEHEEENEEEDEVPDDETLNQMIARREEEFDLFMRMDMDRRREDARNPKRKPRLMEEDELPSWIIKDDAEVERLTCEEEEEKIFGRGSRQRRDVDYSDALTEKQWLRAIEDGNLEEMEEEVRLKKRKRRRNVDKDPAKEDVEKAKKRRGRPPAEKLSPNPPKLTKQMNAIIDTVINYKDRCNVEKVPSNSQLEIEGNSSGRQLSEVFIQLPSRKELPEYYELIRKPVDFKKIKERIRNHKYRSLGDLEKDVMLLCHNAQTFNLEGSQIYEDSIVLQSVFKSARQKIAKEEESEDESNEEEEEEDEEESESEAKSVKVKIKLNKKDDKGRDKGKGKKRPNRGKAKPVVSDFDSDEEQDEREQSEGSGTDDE
measure-name: Dmax

>  <compound>
COCCOCCOCCOCCOC[C@H](NC(=O)[C@@H]1C[C@@H](O)CN1C(=O)[C@@H](n1cc([C@H]2CC[C@H](CN3CCC(c4ccc5c(c4)-n4c(nc(=O)c6c(Cl)cccc64)C5(C)C)CC3)CC2)nn1)C(C)(C)C)c1ccc(-c2scnc2C)cc1 [Compound A151]

>  <assay-system>
SMARCA2 (Homo sapiens, UniProt P51531)

>  <measure-name>
Dmax

>  <obs-value>
> 90%

$$$$
>  <compound>
Cc1ncsc1-c1ccc([C@H](C)NC(=O)[C@@H]2C[C@@H](O)CN2C(=O)[C@@H](n2cc(CN3CCC(c4ccc5c(c4)-n4c(nc(=O)c6c(Br)cccc64)C54CCCCC4)CC3)nn2)C(C)(C)C)cc1 [Compound A43]

>  <assay-system>
SMARCA2 (Homo sapiens, UniProt P51531)

>  <measure-name>
Dmax

>  <obs-value>
> 90%

$$$$
>  <compound>
Cc1ncsc1-c1ccc([C@H](C)NC(=O)[C@@H]2C[C@@H](O)CN2C(=O)[C@@H](n2cc(CCN3CCC(c4ccc5c(c4)C4(CCCCC4)c4nc(=O)c6c(Br)cccc6n4-5)CC3)nn2)C(C)(C)C)cc1 [Compound A54]

>  <assay-system>
SMARCA2 (Homo sapiens, UniProt P51531)

>  <measure-name>
Dmax

>  <obs-value>
> 90%

$$$$
>  <compound>
Cc1ncsc1-c1ccc([C@H](C)NC(=O)[C@@H]2C[C@@H](O)CN2C(=O)[C@H](C2CCCCC2)n2cc([C@H]3CC[C@H](CN4CCC(c5ccc6c(c5)-n5c(nc(=O)c7c(Cl)cccc75)C65CCCCC5)CC4)CC3)nn2)cc1 [Compound A118]

>  <assay-system>
SMARCA2 (Homo sapiens, UniProt P51531)

>  <measure-name>
Dmax

>  <obs-value>
> 90%

$$$$

Values from patent US20260092071A1
